# Test system: MDA-MB-468 breast
# PROTOCOL_SUMMARY: NCI-60 one-dose screen, 48 h (100 = growth as untreated, 0 = no growth, -100 = all killed)
# TEST_CONTEXT: 10 µM unless noted
Compounds without any hit were thinned out: in the full panel of roughly 83,000, 20% have a hit.
REPORTED_METRIC: growth (%)
API: value field is a number in %; no unit string.

Q: Quick one: growth of CCOCC1(CCc2ccccc2)C(=O)NC(=S)NC1=O ?
Ans: 119

Q: Quick one: growth of CCOP(=O)(OCC)C(NC(C)=O)C(=O)SCCN (stereo not given) ?
Ans: 124

Q: Quick one: growth of CNC(=O)Oc1ccc(N(C)C)cc1C(C)C ?
Ans: 74.8

Q: Quick one: growth of O=C(CC1(O)C(=O)Nc2ccc(F)cc21)c1ccc(C(=O)NCC2CCC3(CC2)OOC2(CCCCC2)OO3)cc1 (stereo not given) ?
Ans: 47.6

Q: Quick one: growth of O=C(NCc1ccc([N+](=O)[O-])cc1)Nc1ccc(S(=O)(=O)F)cc1 ?
Ans: 40.4

====

# Tested on: SK-OV-3 ovarian
# PROTOCOL_SUMMARY: NCI-60 one-dose screen, 48 h
# TEST_CONTEXT: 10 µM
About 83,000 compounds went through this panel and 20% of them were active in at least one assay; those are over-represented in the sample as a whole. Activity calls are given as the source filed them. The calls were made as follows: active = growth percent below 10; inactive = the rest.
In this exercise, the only acceptable responses are TRUE = active, FALSE = inactive

Q: Recorded test call requested for COc1cc2cc(C(=O)N3C[C@@H](CCl)c4c3cc(OC(=O)N3CCN(C)[C@@H]5CSSC[C@H]53)c3ccccc43)[nH]c2c(OC)c1OC
Ans: TRUE

Q: Recorded test call requested for C#CC[Se]C(=O)c1ccc2n[se]nc2c1
Ans: FALSE

Q: Recorded test call requested for CCOC(=O)C1=C(Nc2ccccc2)C(=O)OC12C(=O)Nc1ccccc12 (stereo unspecified)
Ans: FALSE

Q: Recorded test call requested for COCCOCCOCCOc1ccc(-n2cc(-c3ccc(O[C@H]4O[C@@H]5OC6(C)CC[C@H]7[C@H](C)CC[C@@H]([C@H]4C)[C@@]57OO6)cc3)nn2)cc1
Ans: FALSE

Q: Recorded test call requested for C#CCCCN(CCNc1ccnc2cc(Cl)ccc12)C(=O)CCC(=O)O[C@@H]1O[C@@H]2OC3(C)CC[C@H]4[C@H](C)CC[C@@H]([C@H]1C)[C@@]24OO3
Ans: FALSE

Q: Recorded test call requested for CC1=C(C=O)C2=C(C)C3(CC3)[C@@](C)(O)C(=O)C2=C1
Ans: TRUE

====

# Test system: HL-60(TB) leukemia
# PROTOCOL_SUMMARY: NCI-60 one-dose screen, 48 h (100 = growth as untreated, 0 = no growth, -100 = all killed)
# TEST_CONTEXT: 10 µM unless noted
The panel holds about 83,000 compounds, 20% with a hit somewhere; the sample as a whole holds those more often. Activity calls are given as the source filed them. The calls were made as follows: active = growth percent below 10; inactive = the rest.
Provide the recorded growth for the entries that follow.

Q: What value of growth on HL-60(TB) leukemia does Cn1cc(/C=N/Nc2ccnc3cc(Cl)ccc23)c2ccccc21 have?
Ans: -60.3% (active)

Q: What value of growth on HL-60(TB) leukemia does COc1ccccc1[C@H]1C(C(=O)c2ccc(Cl)cc2)C2(N[C@@H]1c1ccccc1)C(=O)Nc1ccc(Cl)cc12 (stereo partly drawn) have?
Ans: -25.1% (active)

Q: What value of growth on HL-60(TB) leukemia does CN1CCN(Cc2ccc(NC(=O)c3cncc(C#Cc4cnc5ccc(N[C@H]6CCOC6)nn45)c3)cc2C(F)(F)F)CC1 have?
Ans: -54.4% (active)
